Task for the reader: assign each of the following binders its reported In vitro activity compared with native peptide (%) vs. GIP.
# TGT: T1, human GIP receptor (human, UniProt P48546 22-466)
# T1 sequence (looked up): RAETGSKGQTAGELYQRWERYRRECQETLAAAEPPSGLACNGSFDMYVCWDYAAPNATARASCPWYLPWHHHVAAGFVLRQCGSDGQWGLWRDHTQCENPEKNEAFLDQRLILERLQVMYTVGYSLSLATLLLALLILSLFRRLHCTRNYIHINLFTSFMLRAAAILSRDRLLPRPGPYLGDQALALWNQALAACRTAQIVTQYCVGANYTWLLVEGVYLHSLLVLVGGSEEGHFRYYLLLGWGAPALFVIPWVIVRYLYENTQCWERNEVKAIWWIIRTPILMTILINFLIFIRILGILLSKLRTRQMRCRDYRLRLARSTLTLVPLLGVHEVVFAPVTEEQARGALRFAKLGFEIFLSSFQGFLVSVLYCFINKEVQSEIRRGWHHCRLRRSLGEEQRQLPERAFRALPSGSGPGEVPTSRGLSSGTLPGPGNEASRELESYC
# ASSAY_REMARKS: cell-based or functional assay
Bridges are numbered along the chain shown (N, C = ends). Where no end group is shown, it is not given here. [ ]: non-standard residue; d: D form. The star is where a group is joined. Acetyl(2-(4-imidazolyl)) = O=C(Cc1c[nH]cn1)*; Aib = CC(C)(N)C(=O)O
One number for each entry, in %.

binder="{Acetyl(2-(4-imidazolyl))}-[Aib]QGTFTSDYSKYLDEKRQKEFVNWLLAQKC (bridge 15-19) [Triple agonist of SEQ ID NO: 93]" observed_value=0.7
binder="Y[Aib]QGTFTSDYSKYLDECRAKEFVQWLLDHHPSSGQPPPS (bridge 16-20) [Triple agonist of SEQ ID NO: 21]" observed_value=22.7

For this binder ( H[Aib]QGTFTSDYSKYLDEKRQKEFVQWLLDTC (bridge 16-20) [Triple agonist of SEQ ID NO: 52] ), measured In vitro activity compared with native peptide (%) vs. GIP is 0.3
